# Test system: MDA-MB-231 (breast cancer cells)
# protocol_notes: MTT cancer cell growth inhibition
# Format: cell-based
# assay_setup: Homo sapiens, MDA-MB-231, 72 h, read-out: GI50 MDA-MB-231, MTT, 72 hours incubation, MDA-MB-231 cells
measurement_type: GI50 (nM)

P: C/C=C1\NC(=O)c2nc(ccc2F)CNC(=O)C[C@@H](/C=C/CCS)OC(=O)[C@H](CCCCNC(=O)OCC2c3ccccc3-c3ccccc32)NC1=O
Q: C/C=C1\NC(=O)c2ccc(SC)c(n2)CNC(=O)C[C@@H](/C=C/CCSC=O)OC(=O)[C@H](C(C)C)NC1=O
R: C/C=C1\NC(=O)c2cccc(n2)CCNC(=O)C[C@@H](/C=C/CCS)OC(=O)[C@H](C(C)C)NC1=O
Challenge: I would appreciate it if you could sort these 3 molecules by GI50, starting from the smallest number. Reply with the labels, ordered as the question asks.
Response given: P, Q, R

====

# target: HDAC1 (Homo sapiens, UniProt Q13547)
# Sequence (Q13547 whole entry, species assumed): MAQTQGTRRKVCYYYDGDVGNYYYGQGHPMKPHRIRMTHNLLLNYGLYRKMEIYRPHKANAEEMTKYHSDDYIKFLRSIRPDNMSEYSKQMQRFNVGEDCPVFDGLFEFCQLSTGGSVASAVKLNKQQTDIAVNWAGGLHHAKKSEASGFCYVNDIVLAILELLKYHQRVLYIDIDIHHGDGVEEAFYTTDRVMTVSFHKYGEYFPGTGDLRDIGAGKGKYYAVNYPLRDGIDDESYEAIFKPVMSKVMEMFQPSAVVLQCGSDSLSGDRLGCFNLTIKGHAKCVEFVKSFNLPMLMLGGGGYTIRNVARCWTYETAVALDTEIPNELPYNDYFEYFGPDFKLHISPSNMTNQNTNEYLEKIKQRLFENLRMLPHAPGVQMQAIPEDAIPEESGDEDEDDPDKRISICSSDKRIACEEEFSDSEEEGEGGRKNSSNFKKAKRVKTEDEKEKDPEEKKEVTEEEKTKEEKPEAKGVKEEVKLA
# protocol_notes: HDAC biochemical activity measurement (fluorescent substrate deacetylation);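 also: fluorogenic acetyl-lysine substrate (20 µM) deacetylated by HDAC1, then developer releases fluorophore read at 360 nm excitation and 460 nm emission, inhibitor incubated 30 min at 37 °C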
# assay_setup: HDAC1; 37° C. 30 minutes; read-out: IC50 HDAC1
measurement_type: IC50 (µM)

compound: C/C=C1\NC(=O)c2cccc(n2)CCNC(=O)C[C@@H](/C=C/CCSC(C)=O)OC(=O)[C@H](C(C)C)NC1=O [Example 26]
target: HDAC1 (Homo sapiens, UniProt Q13547)
recorded_result: 0.091

I: C/C=C1\NC(=O)c2cccc(n2)CNC(=O)C[C@@H](/C=C/CCSC(=O)CCCC)OC(=O)[C@H](C(C)C)NC1=O [Compound 4]
II: C/C=C1\NC(=O)c2ccc(SC)c(n2)CNC(=O)C[C@@H](/C=C/CCSC(C)=O)OC(=O)[C@H](CC)NC1=O [Compound 179]
Challenge: Pick one, I or II : lowest reported IC50. Answer = label.
Response given: II
(II: 0.073 µM, I: 0.183 µM)

a: C/C=C1\NC(=O)c2nc(ccc2SC)CNC(=O)C[C@@H](/C=C/CCSC(=O)CCCCC)OC(=O)[C@H](C(C)C)NC1=O [Compound 153]
b: C/C=C1\NC(=O)c2cc(F)cc(n2)CNC(=O)C[C@@H](/C=C/CCSC(=O)CCCCCCC)OC(=O)[C@H](C)NC1=O [Compound 61]
Challenge: Which value of IC50 is numerically greater: that of a or that of b ? Answer = label.
Response given: a

====

# target: HDAC3 (Homo sapiens, UniProt O15379)
# Sequence (O15379 whole entry, species assumed): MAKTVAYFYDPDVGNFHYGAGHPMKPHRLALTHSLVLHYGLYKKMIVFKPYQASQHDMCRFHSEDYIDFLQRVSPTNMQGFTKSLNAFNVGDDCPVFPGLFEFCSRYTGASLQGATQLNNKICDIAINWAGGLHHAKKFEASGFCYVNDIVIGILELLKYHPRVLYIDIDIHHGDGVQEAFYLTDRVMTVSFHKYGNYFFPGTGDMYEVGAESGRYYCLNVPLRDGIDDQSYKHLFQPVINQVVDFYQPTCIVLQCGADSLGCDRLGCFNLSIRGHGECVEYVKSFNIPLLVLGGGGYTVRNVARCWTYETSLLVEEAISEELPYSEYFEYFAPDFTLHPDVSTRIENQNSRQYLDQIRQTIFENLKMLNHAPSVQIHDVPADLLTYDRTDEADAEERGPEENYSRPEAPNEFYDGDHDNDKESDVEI
# Sequence (Q9Y618 395-489 partner limits assumed, species assumed): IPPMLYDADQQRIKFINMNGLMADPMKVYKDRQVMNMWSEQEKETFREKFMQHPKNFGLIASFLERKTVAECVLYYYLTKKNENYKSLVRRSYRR
# protocol_notes: HDAC biochemical activity measurement (fluorescent substrate deacetylation);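 also: fluorogenic acetyl-lysine substrate (20 µM) deacetylated by HDAC3, then developer added for 15 min at room temperature, release of fluorophore read at excitation 360 nm, emission 460 nm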
measurement_type: IC50 (nM)

entry_smiles: C/C=C1\NC(=O)c2ccc(F)c(n2)CNC(=O)C[C@@H](/C=C/CCSC(=O)CC)OC(=O)[C@H](C(C)C)NC1=O
target: HDAC3 (Homo sapiens, UniProt O15379)
unit_label: nM
recorded_result: 39

1: C/C=C1\NC(=O)c2ccc(F)c(n2)CNC(=O)C[C@@H](/C=C/CCSC(C)=O)OC(=O)[C@H](CCCCN)NC1=O
2: C/C=C1\NC(=O)c2ccc(F)c(n2)CNC(=O)C[C@@H](/C=C/CCSC(=O)CCCCCCC)OC(=O)[C@H](C)NC1=O
3: C/C=C1\NC(=O)c2nc(ccc2F)CCNC(=O)C[C@@H](/C=C/CCSC(C)=O)OC(=O)[C@H](C(C)C)NC1=O
4: C/C=C1\NC(=O)c2cccc(n2)CNC(=O)C[C@@H](/C=C/CCSC(=O)CCCCC)OC(=O)[C@H](C(C)C)NC1=O
Challenge: Ordering: ascending IC50. Reply with the labels, ordered as the question asks.
Response given: 2, 3, 4, 1
(2: 37 nM, 3: 53 nM, 4: 145 nM, 1: 231 nM)

====

# Tested on: KBM5-T315I (human chronic myelogenous leukemia)
# protocol_notes: MTT cancer cell growth inhibition
# Type: cell-based
# assay_setup: Homo sapiens, 72 h, MTT, 72 hours incubation, KBM5-T315I cells; read-out: GI50 KBM5-T315I
measurement_type: GI50 (nM)

Worked examples, 2 molecules total:
molecule: C/C=C1\NC(=O)c2nc(ccc2F)CNC(=O)C[C@@H](/C=C/CCS)OC(=O)[C@H](CCCCNC(=O)OCC2c3ccccc3-c3ccccc32)NC1=O [Compound 120]
target: KBM5-T315I (human chronic myelogenous leukemia)
unit_label: nM
GI50: 33

molecule: C/C=C1\NC(=O)c2nc(ccc2F)CNC(=O)C[C@@H](/C=C/CCSC(=O)CCCCCCC)OC(=O)[C@H](Cc2ccccc2)NC1=O [Example 69]
target: KBM5-T315I (human chronic myelogenous leukemia)
unit_label: nM
GI50: 29

a: C/C=C1\NC(=O)c2nc(ccc2F)CNC(=O)C[C@@H](/C=C/CCSC(=O)CCCCCC)OC(=O)[C@H](C(C)C)NC1=O [Compound 33]
b: C=C1NC(=O)c2cc(F)cc(n2)CNC(=O)C[C@@H](/C=C/CCSC(C)=O)OC(=O)[C@H](C)NC1=O [Compound 91]
c: C/C=C1\NC(=O)c2cccc(n2)CNC(=O)C[C@@H](/C=C/CCSC(C)=O)OC(=O)[C@H](CCCCNC(=O)OCC2c3ccccc3-c3ccccc32)NC1=O [Compound 16]
d: C/C=C1\NC(=O)c2cccc(n2)CNC(=O)C[C@@H](/C=C/CCSC(=O)CCCCCCC)OC(=O)[C@H](Cc2ccccc2)NC1=O [Compound 14]
Challenge: Returns the items ordered by GI50, from maximum to minimum. Reply with the labels, ordered as the question asks.
Response given: a, b, c, d
(a: 51 nM, b: 31 nM, c: 19 nM, d: 12 nM)

a: C/C=C1\NC(=O)c2cccc(n2)CNC(=O)C[C@@H](/C=C/CCS)OC(=O)[C@H](CCCCNC(=O)OCC2c3ccccc3-c3ccccc32)NC1=O [Compound 119]
b: CSc1cc2nc(c1)C(=O)NC(=C(C)C)C(=O)N[C@@H](C(C)C)C(=O)O[C@H](/C=C/CCSC(C)=O)CC(=O)NC2 [Compound 208]
Challenge: Pick one, a or b : lowest reported GI50. Answer = label.
Response given: a

P: C/C=C1\NC(=O)c2cc(SC)cc(n2)CNC(=O)C[C@@H](/C=C/CCSC(=O)CCCCCC)OC(=O)[C@H](C(C)C)NC1=O [Compound 151]
Q: C/C=C1\NC(=O)c2nc(ccc2SC)CNC(=O)C[C@@H](/C=C/CCSC(=O)CCCC)OC(=O)[C@H](C(C)C)NC1=O [Compound 156]
Challenge: Which value of GI50 is numerically greater: that of P or that of Q ? Answer = label.
Response given: Q
(Q: 33 nM, P: 22 nM)

A: C/C=C1\NC(=O)c2ccc(F)c(n2)CCNC(=O)C[C@@H](/C=C/CCSC(C)=O)OC(=O)[C@H](C(C)C)NC1=O [Compound 105]
B: C/C=C1\NC(=O)c2nc(ccc2SC)CNC(=O)C[C@@H](/C=C/CCSC(=O)CCCCCCC)OC(=O)[C@H](C(C)C)NC1=O [Compound 147]
Challenge: Which value of GI50 is numerically greater: that of A or that of B ? Answer = label.
Response given: A

====

# Test system: HT1080 (human fibrosarcoma cells)
# protocol_notes: MTT cancer cell growth inhibition
# Type: cell-based
# assay_setup: Homo sapiens, HT-1080, 72 h, HT1080 cells, MTT, 72 hours incubation; read-out: GI50 HT1
measurement_type: GI50 (nM)

I: C=C1NC(=O)c2ccc(SC)c(n2)CNC(=O)C[C@@H](/C=C/CCSC(C)=O)OC(=O)[C@H](C(C)C)NC1=O
II: C/C=C1\NC(=O)c2ccc(SC)c(n2)CNC(=O)C[C@@H](/C=C/CCSC(=O)CCCCCCC)OC(=O)[C@H](CC)NC1=O
III: CSc1ccc2nc1C(=O)NC(=C(C)C)C(=O)N[C@@H](C(C)C)C(=O)O[C@H](/C=C/CCSC(C)=O)CC(=O)NC2
Challenge: Reorder: GI50, max to min. Reply with the labels, ordered as the question asks.
Response given: II, III, I
(II: 70 nM, III: 30 nM, I: 10 nM)

1: C=C1NC(=O)c2cc(SC)cc(n2)CNC(=O)C[C@@H](/C=C/CCSC(C)=O)OC(=O)[C@H](C(C)C)NC1=O
2: C/C=C1\NC(=O)c2ccc(SC)c(n2)CNC(=O)C[C@@H](/C=C/CCSC(=O)CCCCCC)OC(=O)[C@H](C(C)C)NC1=O
3: C/C=C1\NC(=O)c2cc(SC)cc(n2)CNC(=O)C[C@@H](/C=C/CCSC=O)OC(=O)[C@H](C(C)C)NC1=O
Challenge: Ordering: ascending GI50. Reply with the labels, ordered as the question asks.
Response given: 1, 3, 2

====

# target: UniProt:Q13547
# protocol_notes: HDAC biochemical activity measurement (fluorescent substrate deacetylation)
# assay_setup: HDAC1; 37° C. 30 minutes; read-out: IC50 HDAC1
pIC50: −log10 of the molar value.
measurement_type: pIC50

compound: CCCCCCCC(=O)SCC/C=C/[C@@H]1CC(=O)NCc2cccc(n2)C(=O)NCC(=O)N[C@@H](C(C)C)C(=O)O1
target: UniProt:Q13547
pIC50: 7.05
//
compound: C/C=C1\NC(=O)c2cc(F)cc(n2)CNC(=O)C[C@@H](/C=C/CCSC(C)=O)OC(=O)[C@H](C(C)C)NC1=O [Compound 94]
target: UniProt:Q13547
pIC50: 7.38
//
compound: C/C=C1\NC(=O)c2nc(ccc2F)CNC(=O)C[C@@H](/C=C/CCSC(C)=O)OC(=O)[C@H](C(C)C)NC1=O
target: UniProt:Q13547
pIC50: 7.09
//
compound: C/C=C1\NC(=O)c2cc(SC)cc(n2)CNC(=O)C[C@@H](/C=C/CCSC(C)=O)OC(=O)[C@H](CCCCN)NC1=O
target: UniProt:Q13547
pIC50: 7.37

a: C/C=C1\NC(=O)c2cc(F)cc(n2)CNC(=O)C[C@@H](/C=C/CCSC(C)=O)OC(=O)[C@H](C(C)C)NC1=O [Compound 49]
b: C/C=C1\NC(=O)c2cccc(n2)CNC(=O)C[C@@H](/C=C/CCSC=O)OC(=O)[C@H](C(C)C)NC1=O
Challenge: Pick one, a or b : lowest reported pIC50. Answer = label.
Response given: b
